ASSAYED SYSTEM: 3-hydroxy-3-methylglutaryl-coenzyme A reductase (Rattus norvegicus)
Sequence (P51639 whole entry): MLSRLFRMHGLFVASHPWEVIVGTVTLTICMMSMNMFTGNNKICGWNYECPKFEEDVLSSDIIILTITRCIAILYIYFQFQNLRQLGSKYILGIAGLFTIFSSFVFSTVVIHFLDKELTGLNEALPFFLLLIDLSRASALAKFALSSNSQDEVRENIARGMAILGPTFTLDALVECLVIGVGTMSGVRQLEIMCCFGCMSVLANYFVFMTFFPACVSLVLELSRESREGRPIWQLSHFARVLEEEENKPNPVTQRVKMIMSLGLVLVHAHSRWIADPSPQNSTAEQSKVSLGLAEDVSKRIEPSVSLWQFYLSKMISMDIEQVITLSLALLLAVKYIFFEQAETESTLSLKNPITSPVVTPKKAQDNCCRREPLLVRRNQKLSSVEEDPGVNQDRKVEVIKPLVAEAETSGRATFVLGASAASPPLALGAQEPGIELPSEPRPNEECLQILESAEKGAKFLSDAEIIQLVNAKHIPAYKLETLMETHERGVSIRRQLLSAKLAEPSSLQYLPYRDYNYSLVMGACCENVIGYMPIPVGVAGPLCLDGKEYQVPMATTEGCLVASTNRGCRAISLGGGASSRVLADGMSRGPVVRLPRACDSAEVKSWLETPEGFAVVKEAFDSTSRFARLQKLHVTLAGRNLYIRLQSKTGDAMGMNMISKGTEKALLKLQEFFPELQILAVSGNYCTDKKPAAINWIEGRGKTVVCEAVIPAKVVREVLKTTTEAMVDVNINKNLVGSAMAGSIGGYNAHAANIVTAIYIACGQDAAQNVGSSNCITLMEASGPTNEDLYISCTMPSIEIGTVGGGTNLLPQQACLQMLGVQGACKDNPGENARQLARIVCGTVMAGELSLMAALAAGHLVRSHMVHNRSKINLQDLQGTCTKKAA
MEASUREMENT NOTES: In vitro for inhibition of rat HMG-CoA reductase.
MEASUREMENT PARAMETERS: read-out: I50
Threshold-based label: IC50 under 60 nM gives Yes, IC50 not under 60 nM gives No.

> print(dat)
                                smiles.data  group
1  Cc1c(-c2ccccc2)nc(C2CC2)c(C#CP(=O)(O)C[C@H](O)CC(=O)O)c1-c1ccc(F)cc1    Yes
2  CC(C)c1nc(-c2ccccc2)c(C(C)C)c(-c2ccc(F)cc2)c1C#CP(=O)(O)C[C@H](O)CC(=O)O    Yes
3  CC(C)c1nc(-c2ccccc2)cc(-c2ccc(F)cc2)c1C#CP(=O)([O-])C[C@H](O)CC(=O)[O-].[Li+].[Li+]     No
4  CC(C)c1nc(-c2ccccc2)cc(-c2ccc(F)cc2)c1CCP(=O)(O)C[C@H](O)CC(=O)O     No
5  O=C(O)C[C@@H](O)CP(=O)(O)C#Cc1c(-c2ccc(F)cc2)cc(-c2ccccc2)nc1C1CC1     No

IN: Hello, is IC50 of the following molecule strictly smaller than 60 nM? Cc1cc(F)ccc1-c1cc(-c2ccccc2)nc(C(C)C)c1/C=C/P(=O)(O)C[C@H](O)CC(=O)O
OUT: Yes

IN: Now this one: CC(C)c1nc(C(C)(C)C)cc(-c2ccc(F)cc2)c1CCP(=O)(O)C[C@H](O)CC(=O)O
OUT: Yes

IN: Record: CCc1nc(-c2ccccc2)c(C)c(-c2ccc(F)cc2)c1C#CP(=O)(O)C[C@H](O)CC(=O)O
OUT: No

###

Recorded log10 IC50 values for a group of compounds are listed next.
ASSAYED SYSTEM: UniProt:P51639
Sequence (P51639 whole entry): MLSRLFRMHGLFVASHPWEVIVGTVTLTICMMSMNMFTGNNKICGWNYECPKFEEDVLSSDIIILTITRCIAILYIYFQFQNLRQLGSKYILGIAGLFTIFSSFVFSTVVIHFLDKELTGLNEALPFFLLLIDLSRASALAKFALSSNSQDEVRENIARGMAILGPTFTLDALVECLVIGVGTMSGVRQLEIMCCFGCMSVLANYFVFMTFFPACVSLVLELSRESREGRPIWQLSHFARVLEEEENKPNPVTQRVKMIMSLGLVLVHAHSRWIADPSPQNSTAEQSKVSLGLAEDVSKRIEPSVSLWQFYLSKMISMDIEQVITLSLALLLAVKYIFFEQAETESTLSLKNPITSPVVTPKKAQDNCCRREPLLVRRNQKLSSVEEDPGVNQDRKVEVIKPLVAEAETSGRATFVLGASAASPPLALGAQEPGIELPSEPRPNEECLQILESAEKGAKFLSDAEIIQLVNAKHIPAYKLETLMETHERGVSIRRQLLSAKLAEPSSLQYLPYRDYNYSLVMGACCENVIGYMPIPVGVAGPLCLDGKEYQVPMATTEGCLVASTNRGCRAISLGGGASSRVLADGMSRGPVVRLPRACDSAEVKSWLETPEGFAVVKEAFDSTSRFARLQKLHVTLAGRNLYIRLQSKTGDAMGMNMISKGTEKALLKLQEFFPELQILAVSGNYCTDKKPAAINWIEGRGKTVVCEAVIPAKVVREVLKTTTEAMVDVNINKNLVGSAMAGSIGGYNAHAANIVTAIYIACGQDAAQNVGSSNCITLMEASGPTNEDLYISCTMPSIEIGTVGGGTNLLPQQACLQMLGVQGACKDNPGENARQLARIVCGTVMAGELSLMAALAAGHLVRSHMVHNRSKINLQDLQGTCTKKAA
MEASUREMENT NOTES: In vitro for inhibition of rat HMG-CoA reductase.
MEASUREMENT PARAMETERS: read-out: I50
Form field - Quantity: IC50; Unit: µM; Scale: log10

Use the examples below as a reference point.
> print(dat)
                                 smiles.data  observed.property  measured
 1  CC(C)c1nc(-c2ccccc2)cc(-c2ccc(F)cc2)c1/C=C/P(=O)([O-])C[C@H](O)CC(=O)[O-].[Li+].[Li+]         log10 IC50     -2.72
 2  CC(C)c1nc(C(C)(C)C)cc(-c2ccc(F)cc2)c1C#CP(=O)([O-])C[C@H](O)CC(=O)[O-].[Na+].[Na+]         log10 IC50     -2.21
 3  Cc1c(-c2ccccc2)nc(C(C)C)c(CCP(=O)(O)C[C@H](O)CC(=O)O)c1-c1ccc(F)cc1         log10 IC50     -2.04
 4  CC(C)c1nc2c(c(-c3ccc(F)cc3)c1C#CP(=O)(O)C[C@H](O)CC(=O)O)Cc1ccccc1-2         log10 IC50     -1.12
 5  CC(C)c1nc(C(C)(C)C)cc(-c2ccc(F)cc2)c1/C=C/P(=O)(O)C[C@H](O)CC(=O)O         log10 IC50     -2.49
 6  CC(C)c1nc2c(c(-c3ccc(F)cc3)c1C#CP(=O)(O)C[C@H](O)CC(=O)O)CCc1ccccc1-2         log10 IC50     -1.28
 7  Cc1cc(F)ccc1-c1cc(-c2ccccc2)nc(C(C)C)c1CCP(=O)(O)C[C@H](O)CC(=O)O         log10 IC50     -0.94
 8  Cc1cc(-c2cc(-c3ccccc3)nc(C(C)C)c2C#CP(=O)(O)C[C@H](O)CC(=O)O)ccc1F         log10 IC50     -1.66
 9  CC(C)c1nc(-c2ccccc2)c(-c2ccccc2)c(-c2ccc(F)cc2)c1C#CP(=O)(O)C[C@H](O)CC(=O)O         log10 IC50     -1.81
10  CC(C)c1nc2c(c(-c3ccc(F)cc3)c1C#CP(=O)(O)C[C@H](O)CC(=O)O)CCCc1ccccc1-2         log10 IC50     -1.84

IN: // fetch UniProt:P51639 log10 IC50 for Cc1ccccc1-c1cc(-c2ccc(F)cc2)c(C#CP(=O)(O)C[C@H](O)CC(=O)O)c(C(C)C)n1
OUT: -1.49

IN: Can you check CCc1nc(-c2ccccc2)c(C)c(-c2ccc(F)cc2)c1/C=C/P(=O)(O)C[C@H](O)CC(=O)O next?
OUT: -2.33

IN: Cool, now CC(C)c1nc2c(c(-c3ccc(F)cc3)c1/C=C/P(=O)(O)C[C@H](O)CC(=O)O)CCCc1ccccc1-2
OUT: -2.89

###

ASSAYED SYSTEM: UniProt P51639
MEASUREMENT NOTES: In vitro for inhibition of rat HMG-CoA reductase.
MEASUREMENT PARAMETERS: read-out: I50
OBSERVED PROPERTY: IC50 (nM)
State the answer as a number, implicitly in nM.

> print(dat)
                                smiles.data  unit.of.measurement  measured
1  Cc1cc(-c2ccc(F)cc2)c(C#CP(=O)(O)C[C@H](O)CC(=O)O)c(C(C)C)n1                   nM       231
2  CCc1c(-c2ccccc2)nc(C(C)C)c(C#CP(=O)([O-])C[C@H](O)CC(=O)[O-])c1-c1ccc(F)cc1.[Na+].[Na+]                   nM       5.6
3  CC(C)c1nc(C(c2ccccc2)c2ccccc2)cc(-c2ccc(F)cc2)c1C#CP(=O)(O)C[C@H](O)CC(=O)O                   nM      14.9

API: the following record is the query input.
IN: Bench note: what IC50 did CC(C)c1nc2c(c(-c3ccc(F)cc3)c1CCP(=O)(O)C[C@H](O)CC(=O)O)CCCc1ccccc1-2 show?
OUT: 18.6
